Where do these numbers come from? They come from patent US20250262201A1.

- targetEntity: human PAH with the R408W mutation (Homo sapiens, UniProt P00439, R408W)
- Construct: expressed in transfected cells
- Sequence (P00439 whole entry R408W): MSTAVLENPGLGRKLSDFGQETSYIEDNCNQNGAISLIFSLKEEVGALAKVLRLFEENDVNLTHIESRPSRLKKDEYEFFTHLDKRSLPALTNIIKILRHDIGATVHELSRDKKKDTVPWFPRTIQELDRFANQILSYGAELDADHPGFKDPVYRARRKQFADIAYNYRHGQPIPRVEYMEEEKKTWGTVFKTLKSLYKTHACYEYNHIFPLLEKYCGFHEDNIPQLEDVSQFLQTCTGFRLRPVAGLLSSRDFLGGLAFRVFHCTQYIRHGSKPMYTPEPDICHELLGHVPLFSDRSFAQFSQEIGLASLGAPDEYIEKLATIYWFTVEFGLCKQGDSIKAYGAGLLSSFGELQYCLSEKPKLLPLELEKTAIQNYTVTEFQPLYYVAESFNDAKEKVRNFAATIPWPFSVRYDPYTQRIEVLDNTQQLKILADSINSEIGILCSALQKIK
- experimentalProtocol: Cell Based Phenylalanine Flux Assay
- conditionNotes: A375 cells expressing human R408W PAH; 24 hrs compound incubation; 13C-Tyrosine by LC-MS; average where tested multiple times; read-out: AC50
Overview of recorded AC50 for various compounds
measurementName: AC50

O=C(c1ccnn1C(F)F)N1CCc2[nH]cnc2[C@@H]1c1cc2ccccc2nn1 [Example 214]; 1000 to 5000 nM
CC(C)(O)c1nc(C(F)F)c(C(=O)N2CCc3[nH]cnc3[C@@H]2c2cc3ccccc3nn2)o1 [Example 210]; 1000 to 5000 nM
Cn1ccc(-c2nnc(C(=O)N3CCc4[nH]cnc4[C@@H]3c3ncc4ccccc4n3)o2)n1 [Example 166]; 1000 to 5000 nM
Cn1ccc(-c2nnc(C(=O)N3CCc4[nH]cnc4C3c3ccc4ccccc4n3)o2)n1 (stereo in doubt) [Example 85]; < 500 nM
CC(C)(F)c1ccc2c(C(=O)N3CCc4[nH]cnc4[C@H]3c3cc4ccccc4cn3)cnn2c1 [Example 344]; 500 to 1000 nM
CC(O)c1nc(Br)c(C(=O)N2CCc3[nH]cnc3[C@H]2c2ccc3ccccc3n2)o1 (single isomer, unassigned) [Example 134]; < 500 nM
O=C(c1nnc(-c2ccccn2)o1)N1CCc2[nH]cnc2[C@H]1c1ncc2ccccc2n1 [Example 145]; < 500 nM
FC(F)c1nnc(N2CCc3[nH]cnc3[C@H]2c2cn3ccccc3n2)o1 [Example 230]; 500 to 1000 nM
O=C(c1nnc(-c2ccccn2)o1)N1CCc2[nH]cnc2C1c1ccc2ccccc2n1 (stereo in doubt) [Example 45]; < 500 nM
Cc1ccc(-c2nnc(C(=O)N3CCc4[nH]cnc4[C@H]3c3cc4ccccc4cn3)o2)nc1 [Example 439]; < 500 nM
O=C(c1cnn2cc(-c3ncccn3)ccc12)N1CCc2[nH]cnc2[C@H]1c1cc2ccccc2cn1 [Example 483]; < 500 nM
Cn1ccc(-c2nnc(C(=O)N3CCc4[nH]cnc4C3c3ccc4ccccc4n3)o2)n1 (stereo in doubt) [Example 86]; 1000 to 5000 nM
C[C@H]1CN(C(=O)c2cnc(-c3ccccn3)o2)[C@H](c2cc3ccccc3cn2)c2nc[nH]c21 [Example 381]; 1000 to 5000 nM
O=C(c1cnn2cc(Cl)ccc12)N1CCc2[nH]cnc2[C@H]1c1cc2ccccc2cn1 [Example 467]; < 500 nM
O=C(c1cnn2cc(-c3ccccc3)ccc12)N1CCc2[nH]cnc2[C@H]1c1cc2ccccc2cn1 [Example 485]; < 500 nM
C[C@H](O)c1nc(C(F)F)c(C(=O)N2CCc3[nH]cnc3C2c2ccc3ccccc3n2)o1 (stereo in doubt) [Example 122]; < 500 nM
O=C(N1CCc2[nH]cnc2C1c1ccc2ccccc2n1)C(F)(F)C1(O)CCC1 (stereo in doubt) [Example 56]; 1000 to 5000 nM
Cc1cc(-c2nnc(C(=O)N3CCc4[nH]cnc4[C@H]3c3cc4ccccc4cn3)o2)nn1C [Example 472]; < 500 nM
O=C(CC1CC(F)C1)N1CCc2[nH]cnc2[C@H]1c1cn2ccccc2n1 (some centres unmarked) [Example 254]; < 500 nM
O=C(c1nnc(N2CC(F)C2)o1)N1CCc2[nH]cnc2[C@H]1c1cc2ccccc2cn1 [Example 424]; < 500 nM
O=C(CC1CC(F)C1)N1CCc2[nH]cnc2C1c1ccc2ccccc2n1 (stereo in doubt) [Example 54]; 1000 to 5000 nM
O=C(c1nnc(-c2ccncn2)o1)N1CCc2[nH]cnc2[C@H]1c1cc2ccccc2cn1 [Example 471]; < 500 nM
C[C@@H]1CN(C(=O)c2cnc(-c3ccccn3)o2)[C@H](c2cc3ccccc3cn2)c2nc[nH]c21 [Example 384]; 1000 to 5000 nM
O=C(c1nnc(-c2ccc(F)cn2)o1)N1CCc2[nH]cnc2[C@H]1c1ncc2ccccc2n1 [Example 168]; < 500 nM
O=C([C@H]1CC1(F)F)N1CCc2[nH]cnc2[C@@H]1c1ccc2ccccc2n1 (stereo in doubt) [Example 49]; < 500 nM
O=C(c1nnc(-c2ccc(F)cc2F)o1)N1CCc2[nH]cnc2C1c1ccc2ccccc2n1 (stereo in doubt) [Example 75]; 500 to 1000 nM
